test: Effect of arylcarboxylic acid on solubility of pyridonecarboxylic acid - 3 (Table 3); assay type: physicochemical; settings: 0.1% aqueous sodium dihydrogenphosphate, pH 8, 2-naphthoxyacetic acid added, pH 8, 0.1% aqueous sodium dihydrogenphosphate, 25° C., one week
result.type: solubility thermodynamic at 168 h (µg/mL)
One number for each entry, in µg/mL.

Query :: Which solubility thermodynamic at 168 h value is on record for CCn1cc(C(=O)O)c(=O)c2cc(F)c(N3CCNC(C)C3)c(F)c21 (stereo not shown) [lomefloxacin] ?
Result :: 2040

* * *

assay: Effect of arylcarboxylic acid on solubility of pyridonecarboxylic acid - 3 (Table 3); type: physicochemical; conditions: 0.1% aqueous sodium dihydrogenphosphate, pH 8, without addition, pH 8, 0.1% aqueous sodium dihydrogenphosphate, 25° C., one week
result.type: solubility thermodynamic at 168 h (µg/mL)
Numbers only, in µg/mL.

Query :: // returns reported solubility thermodynamic at 168 h for input CCn1cc(C(=O)O)c(=O)c2cc(F)c(N3CCNC(C)C3)c(F)c21 (stereo not shown)
Result :: 1180

Reference source for all entries: patent US5942508A
